# Test system: primary rat cardiomyocytes
# experiment-notes: Resazurine cytotoxicity assay (metabolic activity), primary rat cardiomyocytes
# Assay type: cell-based
# test-parameters: 24 h, maximal viability concentration
Exam item: assign Met to entries whose MVC is below 8 µM and Not met to entries at or above 8 µM. Note that a value of exactly 8 µM receives Not met.

Strictly below 8 µM: is that where MVC of CCN(CC)CCCC(C)Nc1nccc(Nc2ccc3[nH]c(C)cc3c2)n1 (centres unmarked) [CWB021/01039] sits?
Not met

# check: MVC < 8 µM for CCN(CC)CCCC(C)Nc1nccc(Nc2ccc3[nH]ccc3c2)n1 (centres unmarked) [CWB024/02054]
Met

Criterion: MVC strictly below 8 µM. Is it met by c1cc(NCc2ccc3[nH]ccc3c2)nc(NCc2ccc3[nH]ccc3c2)n1 [CWB020/01041] ?
Met

Is MVC strictly under 8 µM for the entry COC(=O)C(CC(C)C)Nc1cc(C)nc(Nc2ccc3ncccc3c2)n1 (centres unmarked) [CWB018/01034] ?
Not met
